test-system: ABCG2 (Homo sapiens, UniProt Q9UNQ0)
Sequence (Q9UNQ0 whole entry): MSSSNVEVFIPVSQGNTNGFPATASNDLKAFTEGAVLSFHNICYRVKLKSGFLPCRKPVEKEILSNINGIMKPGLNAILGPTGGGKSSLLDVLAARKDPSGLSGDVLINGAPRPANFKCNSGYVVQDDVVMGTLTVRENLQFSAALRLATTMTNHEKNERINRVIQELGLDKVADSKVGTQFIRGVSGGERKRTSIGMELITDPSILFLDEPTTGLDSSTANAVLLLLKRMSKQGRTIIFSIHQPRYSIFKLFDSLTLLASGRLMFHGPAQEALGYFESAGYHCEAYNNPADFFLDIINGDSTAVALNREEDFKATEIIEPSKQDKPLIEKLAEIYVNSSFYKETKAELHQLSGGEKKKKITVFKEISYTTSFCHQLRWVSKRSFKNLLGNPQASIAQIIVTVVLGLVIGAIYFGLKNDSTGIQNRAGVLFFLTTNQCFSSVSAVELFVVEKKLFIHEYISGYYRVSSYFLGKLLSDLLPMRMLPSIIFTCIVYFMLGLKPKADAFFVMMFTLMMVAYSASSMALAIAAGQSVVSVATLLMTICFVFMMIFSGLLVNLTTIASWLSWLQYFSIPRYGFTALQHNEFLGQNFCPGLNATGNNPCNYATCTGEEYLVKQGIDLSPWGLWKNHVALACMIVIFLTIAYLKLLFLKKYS
Format: binding

{"molecule": "CCN(CC)CCN1C(=O)c2c(c3c4cccc(Cl)c4n([C@@H]4O[C@H](CO)[C@@H](OC)[C@H](O)[C@H]4O)c3c3[nH]c4c(Cl)cccc4c23)C1=O [becatecarin]", "IC50 [nM]": 2100}
